# EXPERIMENT NOTES: Acute toxicity test, single dose, ICR mice
# EXPERIMENTAL PARAMETERS: female, in vivo, Mouse (ICR), ♀, oral, medium 5% gum arabic, read-out: LD₅₀ Oral
OBSERVATION TYPE: LD50

Output measured LD50 for this item: CC(C)=CCC/C(C)=C/CC/C(C)=C/C=C/C(C)=C/C(=O)O
> 6250 mg/kg

====

# EXPERIMENT NOTES: Acute toxicity test, single dose, ICR mice
# EXPERIMENTAL PARAMETERS: male, in vivo, Mouse (ICR), ♂, oral, medium 5% gum arabic, read-out: LD₅₀ Oral
OBSERVATION TYPE: LD50

Output measured LD50 for this item: CC(C)=CCC/C(C)=C/CC/C(C)=C/C=C/C(C)=C/C(=O)O
> 6250 mg/kg
